- STUDY_SYSTEM: PI3K δ (Homo sapiens (Human), UniProt O00329)
- Sequence (O00329 whole entry, one chain of several): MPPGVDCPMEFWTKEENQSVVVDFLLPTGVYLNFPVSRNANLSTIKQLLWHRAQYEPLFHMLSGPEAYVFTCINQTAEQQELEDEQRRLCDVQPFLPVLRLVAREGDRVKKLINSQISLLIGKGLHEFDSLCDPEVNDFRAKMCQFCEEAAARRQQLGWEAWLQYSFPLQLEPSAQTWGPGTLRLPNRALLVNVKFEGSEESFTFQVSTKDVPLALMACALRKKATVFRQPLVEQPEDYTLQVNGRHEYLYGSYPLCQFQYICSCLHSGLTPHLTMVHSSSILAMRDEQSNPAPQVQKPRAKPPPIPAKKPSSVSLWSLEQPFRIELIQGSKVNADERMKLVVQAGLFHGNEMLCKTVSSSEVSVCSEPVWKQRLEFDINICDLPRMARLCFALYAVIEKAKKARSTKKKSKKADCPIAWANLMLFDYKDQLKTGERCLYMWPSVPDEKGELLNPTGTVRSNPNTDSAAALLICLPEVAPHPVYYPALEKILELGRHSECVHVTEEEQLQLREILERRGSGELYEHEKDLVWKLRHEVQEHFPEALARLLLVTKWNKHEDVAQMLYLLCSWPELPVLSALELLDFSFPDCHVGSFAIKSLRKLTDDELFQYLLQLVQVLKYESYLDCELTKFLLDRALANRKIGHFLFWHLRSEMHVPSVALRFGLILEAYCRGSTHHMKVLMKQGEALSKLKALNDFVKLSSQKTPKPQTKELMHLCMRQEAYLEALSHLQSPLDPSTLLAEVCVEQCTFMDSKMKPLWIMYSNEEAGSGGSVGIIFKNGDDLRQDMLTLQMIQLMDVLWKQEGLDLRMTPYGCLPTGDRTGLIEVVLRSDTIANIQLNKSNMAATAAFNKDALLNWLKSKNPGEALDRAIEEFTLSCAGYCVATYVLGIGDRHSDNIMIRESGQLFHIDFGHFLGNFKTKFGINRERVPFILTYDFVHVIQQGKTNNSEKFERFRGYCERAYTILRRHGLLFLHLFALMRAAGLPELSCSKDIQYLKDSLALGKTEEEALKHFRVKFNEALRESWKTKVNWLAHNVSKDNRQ
VALUE_TYPE: IC50

molecule=CCOC(=O)N1CCN(c2cnc3ccc(-c4ccc5oc(N)nc5c4)nc3n2)CC1 study_system="PI3K δ (Homo sapiens (Human), UniProt O00329)" observed_result="< 1 µM"
molecule="CC1CN(C2CN(c3cnc4ccc(-c5ccc6oc(N)nc6c5)nc4n3)C2)CCO1 (centres unmarked)" study_system="PI3K δ (Homo sapiens (Human), UniProt O00329)" observed_result="> 10 µM"
molecule=Nc1nc2cc(-c3ccc4ncc(C(=O)N5CCOCC5)nc4c3)ccc2o1 study_system="PI3K δ (Homo sapiens (Human), UniProt O00329)" observed_result="> 10 µM"

Query: Which value of IC50 has been reported for "Nc1nc2cc(-c3ccc4ncc(N5CCOCC5)nc4c3)ccc2o1" in the records?
Result: > 10 µM

Query: I have this molecule here, "C[C@@H]1CN(C2CN(c3cnc4ccc(-c5ccc6oc(N)nc6c5)nc4c3)C2)CCN1C" , and I need its recorded IC50.
Result: < 1 µM

----------
PI3K β (Homo sapiens (Human)) data, read-out IC50
Sequence (P42338 whole entry): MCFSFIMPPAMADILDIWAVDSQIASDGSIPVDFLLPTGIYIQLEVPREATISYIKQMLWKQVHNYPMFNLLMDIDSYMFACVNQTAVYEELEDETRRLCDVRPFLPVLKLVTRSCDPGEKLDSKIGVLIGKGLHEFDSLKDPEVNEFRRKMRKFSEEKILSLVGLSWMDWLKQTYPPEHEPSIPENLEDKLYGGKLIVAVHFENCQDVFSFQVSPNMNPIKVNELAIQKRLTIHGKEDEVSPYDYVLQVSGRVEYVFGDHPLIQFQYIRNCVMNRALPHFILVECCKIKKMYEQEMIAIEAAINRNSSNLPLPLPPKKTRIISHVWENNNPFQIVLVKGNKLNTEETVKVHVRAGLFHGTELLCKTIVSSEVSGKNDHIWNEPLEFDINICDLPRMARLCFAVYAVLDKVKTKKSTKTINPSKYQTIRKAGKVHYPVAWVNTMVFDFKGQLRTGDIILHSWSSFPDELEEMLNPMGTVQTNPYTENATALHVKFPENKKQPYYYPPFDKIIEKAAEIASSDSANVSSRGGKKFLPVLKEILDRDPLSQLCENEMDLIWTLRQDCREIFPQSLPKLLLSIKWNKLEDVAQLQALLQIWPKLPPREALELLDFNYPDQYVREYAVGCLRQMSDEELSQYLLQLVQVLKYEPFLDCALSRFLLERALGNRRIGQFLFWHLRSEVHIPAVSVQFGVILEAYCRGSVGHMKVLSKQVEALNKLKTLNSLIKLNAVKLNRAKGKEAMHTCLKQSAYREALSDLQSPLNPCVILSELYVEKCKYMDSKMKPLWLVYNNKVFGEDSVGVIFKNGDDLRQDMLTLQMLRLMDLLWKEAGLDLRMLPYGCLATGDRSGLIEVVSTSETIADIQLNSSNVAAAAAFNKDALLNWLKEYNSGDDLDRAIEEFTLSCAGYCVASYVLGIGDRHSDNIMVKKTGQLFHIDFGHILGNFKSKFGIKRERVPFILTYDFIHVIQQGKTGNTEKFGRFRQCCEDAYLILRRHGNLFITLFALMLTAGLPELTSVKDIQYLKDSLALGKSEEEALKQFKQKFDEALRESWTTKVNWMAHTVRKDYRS
Sequence (P27986 whole entry partner): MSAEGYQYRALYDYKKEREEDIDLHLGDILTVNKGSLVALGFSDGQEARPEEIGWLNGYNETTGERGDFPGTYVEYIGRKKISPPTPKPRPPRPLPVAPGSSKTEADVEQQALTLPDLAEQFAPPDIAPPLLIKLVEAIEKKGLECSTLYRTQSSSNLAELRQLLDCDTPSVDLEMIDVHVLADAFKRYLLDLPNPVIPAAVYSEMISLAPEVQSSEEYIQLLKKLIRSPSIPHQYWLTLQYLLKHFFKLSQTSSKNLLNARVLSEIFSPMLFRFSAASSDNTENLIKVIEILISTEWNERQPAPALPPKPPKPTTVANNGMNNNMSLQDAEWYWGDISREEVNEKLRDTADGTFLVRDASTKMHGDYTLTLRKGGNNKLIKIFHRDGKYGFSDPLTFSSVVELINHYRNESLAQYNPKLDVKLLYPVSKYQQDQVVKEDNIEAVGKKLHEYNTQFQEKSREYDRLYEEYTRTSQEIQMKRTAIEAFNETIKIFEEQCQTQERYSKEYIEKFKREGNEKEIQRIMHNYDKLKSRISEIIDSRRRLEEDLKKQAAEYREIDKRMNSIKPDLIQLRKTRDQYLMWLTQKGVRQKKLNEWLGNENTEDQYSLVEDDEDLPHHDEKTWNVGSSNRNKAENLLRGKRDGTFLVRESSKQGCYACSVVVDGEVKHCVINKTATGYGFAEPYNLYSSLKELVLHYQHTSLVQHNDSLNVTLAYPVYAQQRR

Look over these answered cases.
molecule=CN1CCN(c2ncnc3ccc(-c4ccc5oc(N)nc5c4)cc23)CC1 study_system="PI3K β (Homo sapiens (Human))" observed_result="< 1 µM"
molecule=C[C@H]1CN(C2CN(c3cnc4ccc(-c5ccc6oc(N)nc6c5)nc4c3)C2)CCN1C study_system="PI3K β (Homo sapiens (Human))" observed_result="< 10 µM"
molecule=Nc1nc2cc(-c3cnc4ncc(-c5ccncc5)n4c3)ccc2o1 study_system="PI3K β (Homo sapiens (Human))" observed_result="> 10 µM"
molecule=CC(C)N1CCN(C(=O)c2cnc3ccc(-c4ccc5oc(N)nc5c4)cn23)CC1 study_system="PI3K β (Homo sapiens (Human))" observed_result="< 10 µM"
molecule=Nc1nc2cc(-c3ccc4ncc(C(=O)N5CC[C@@H](N6CCOCC6)C5)n4c3)ccc2o1 study_system="PI3K β (Homo sapiens (Human))" observed_result="< 10 µM"

Query: Which IC50 value belongs to "CN1CCN([C@@H]2CCN(c3cnc4ccc(-c5ccc6oc(N)nc6c5)cc4n3)C2)CC1" ?
Result: < 1 µM

Query: Query (molecule): "Nc1nc2cc(-c3ccc4ncc(NCCCN5CCCC5)nc4c3)ccc2o1" ; field requested: IC50
Result: < 1 µM

----------
pIC50: −log10 of the molar value.
Reported values: pIC50 for mTORC (Homo sapiens (Human), UniProt P42345), one per item.

compound="Nc1nc2cc(-c3ccc4ncc(-c5ccc6nc(N)oc6c5)n4c3)ccc2o1 [Compound 50]" observed_result="< 5.00"
compound=C[C@@H]1CN(C2CN(c3cnc4ccc(-c5ccc6oc(N)nc6c5)nc4c3)C2)CCN1 observed_result="< 5.00"

Query: Dear colleague, I am looking for the recorded pIC50 of the following compound: Nc1ncc2cc(-c3ccc4nccc(-c5ccncc5)c4c3)ccc2n1 [Compound 9]
Result: < 5.00

Query: Fill in the blank: the reported pIC50 of Nc1nc2cc(-c3ccc4ncc(OC5CCOCC5)nc4c3)ccc2o1 [Compound 49] is ____.
Result: > 5.00

Query: Which measured pIC50 value corresponds to "C[C@H]1CN(C2CN(c3cnc4ccc(-c5ccc6oc(N)nc6c5)nc4c3)C2)CCN1" ?
Result: < 5.00

Query: # query: pIC50 of entry "C[C@@H]1CN(c2cnc3ccc(-c4ccc5oc(N)nc5c4)nc3c2)CCN1"
Result: < 5.00

Query: # pIC50 lookup, item "Nc1nc2cc(-c3ccc4ncc(N5CC(N6CCOCC6)C5)cc4n3)ccc2o1"
Result: < 5.00

Query: Would you mind telling me what pIC50 value was observed for "Nc1nc2cc(-c3ccc4ncc(C(=O)N[C@H]5CC[C@H](O)CC5)n4c3)ccc2o1" ?
Result: < 5.00

----------
- STUDY_SYSTEM: PI3K γ (Homo sapiens (Human), UniProt P48736)
- Sequence (P48736 whole entry, looked up): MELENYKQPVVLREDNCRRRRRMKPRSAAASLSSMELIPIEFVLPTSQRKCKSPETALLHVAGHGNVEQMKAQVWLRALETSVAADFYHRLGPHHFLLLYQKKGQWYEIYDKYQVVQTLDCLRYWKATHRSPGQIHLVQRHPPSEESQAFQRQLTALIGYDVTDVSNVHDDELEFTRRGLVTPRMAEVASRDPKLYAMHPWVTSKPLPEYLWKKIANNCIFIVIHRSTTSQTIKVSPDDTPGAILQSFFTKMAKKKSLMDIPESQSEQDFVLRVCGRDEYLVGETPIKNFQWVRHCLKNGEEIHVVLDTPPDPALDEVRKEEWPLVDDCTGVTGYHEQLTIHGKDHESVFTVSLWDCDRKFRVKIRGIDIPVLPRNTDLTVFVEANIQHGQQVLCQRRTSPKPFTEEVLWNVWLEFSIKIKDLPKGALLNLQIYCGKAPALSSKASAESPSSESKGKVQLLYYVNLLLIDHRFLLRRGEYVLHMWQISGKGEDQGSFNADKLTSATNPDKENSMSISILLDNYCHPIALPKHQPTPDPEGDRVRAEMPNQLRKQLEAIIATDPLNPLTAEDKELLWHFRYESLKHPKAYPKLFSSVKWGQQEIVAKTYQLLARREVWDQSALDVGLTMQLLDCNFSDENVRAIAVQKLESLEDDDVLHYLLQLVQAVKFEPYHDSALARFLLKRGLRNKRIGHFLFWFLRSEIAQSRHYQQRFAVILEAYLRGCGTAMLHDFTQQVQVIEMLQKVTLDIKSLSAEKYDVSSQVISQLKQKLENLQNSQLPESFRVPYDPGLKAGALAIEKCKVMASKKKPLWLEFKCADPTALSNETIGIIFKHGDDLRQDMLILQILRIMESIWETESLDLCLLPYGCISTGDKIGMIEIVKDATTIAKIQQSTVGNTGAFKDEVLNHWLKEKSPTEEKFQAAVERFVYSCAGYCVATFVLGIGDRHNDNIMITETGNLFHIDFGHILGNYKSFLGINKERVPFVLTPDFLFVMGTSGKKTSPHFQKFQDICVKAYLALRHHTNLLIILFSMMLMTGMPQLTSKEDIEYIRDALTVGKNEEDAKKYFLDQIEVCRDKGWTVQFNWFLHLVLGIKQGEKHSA
- TEST: PI 3-Kinase (human) HTRF assay, p110γ
- Assay type: biochemical
- PROTOCOL_CONDITIONS: read-out: PI3K δ IC50
pIC50: −log10 of the molar value.
VALUE_TYPE: pIC50

compound=Nc1nc2cc(-c3ccc4ncc(N5CC(n6ccnc6)C5)nc4c3)ccc2o1 observed_result="> 6.00"
compound=CN1CCN(CCNC(=O)c2cnc3ccc(-c4ccc5oc(N)nc5c4)cn23)CC1 observed_result="> 6.00"
compound=Nc1noc2c(-c3ccc4ncc(C(=O)N5CCOCC5)n4c3)cccc12 observed_result="< 5.00"
compound=C[C@H]1CN(c2cnc3ccc(-c4ccc5nc(N)sc5c4)cc3n2)CCN1 observed_result="> 5.00"
compound=CC(=O)Nc1nc2ccc(-c3cc(F)c4oc(N)nc4c3)cc2s1 observed_result="> 7.00"

Query: Return reported pIC50; argument: "Nc1nc2cccc(-c3ccc4ncc(C(=O)N5CCOCC5)n4c3)c2o1"
Result: < 5.00

Query: Recorded pIC50 of "COc1ccc(-c2ccc3ncc(C(=O)N4CCOCC4)n3c2)cc1S(=O)(=O)Nc1ccccc1" , please.
Result: < 5.00

Query: Quick one: pIC50 for "Nc1nc2cc(-c3ccc4ncc(N5CC(N6CC[C@@H](O)C6)C5)nc4c3)ccc2o1" ?
Result: > 5.00

Query: Requested field: pIC50. Item: "CC(C)N1CCC(n2cnc3ccc(-c4cnc(Cl)c(NS(=O)(=O)c5ccccc5)c4)cc3c2=O)CC1"
Result: > 6.00

Query: What pIC50 value was documented for this compound, "Nc1nc2cc(-c3ccc4ncc(C(=O)N5CCOCC5)n4c3)cc(F)c2o1" ?
Result: > 7.00

----------
- STUDY_SYSTEM: UniProt:P42345
pIC50: −log10 of the molar value.
VALUE_TYPE: pIC50

compound=CN1CCN(c2cnc3ccc(-c4ccc5oc(N)nc5c4)cc3n2)CC1=O observed_result="> 5.00"

Query: Fill in: pIC50 of "Nc1nc2cc(-c3ccc4ncc(N5CCN(C(=O)[C@@H](N)CO)CC5)nc4c3)ccc2o1" is ___
Result: > 5.00

Query: For the compound shown here, "CC(=O)Nc1cn2cc(-c3ccc4oc(N)nc4c3)ccc2n1" , give the reported pIC50.
Result: > 6.00

Query: Name the reported pIC50 value associated with the compound "C[C@H]1CN(C2CN(c3cnc4ccc(-c5ccc6oc(N)nc6c5)nc4n3)C2)CCN1"
Result: > 5.00

Query: What pIC50 value was documented for this compound, "CCN1CCN(C2CN(c3cnc4ccc(-c5ccc6oc(N)nc6c5)cc4n3)C2)CC1" ?
Result: < 5.00

Query: Would you mind telling me what pIC50 value was observed for "Nc1nc2cc(-c3ccc4ncc(N5CC(N6CCOCC6)C5)nc4c3)ccc2o1" ?
Result: > 6.00

Query: I would be grateful if you could share the reported pIC50 for "CC(=O)N1CCC(N(C)c2ncnc3ccc(-c4ccc5oc(N)nc5c4)cc23)CC1" .
Result: < 5.00

Query: Which value of pIC50 has been reported for "COC(=O)N1CCC(n2ncc3c(N4CCOCC4)nc(-c4ccc5oc(N)nc5c4)nc32)CC1" in the records?
Result: > 6.00

Query: State the recorded pIC50 for this entry: "O=C(c1cnc2ccc(-c3cnc(Cl)c(NS(=O)(=O)c4ccc(F)cc4F)c3)cn12)N1CCOCC1"
Result: > 6.00

Query: # get_value(readout='pIC50', item= "CC(=O)N1CCC(Nc2ncnc3ccc(-c4ccc5oc(N)nc5c4)cc23)CC1" )
Result: > 6.00

Query: // returns reported pIC50 for input "CN(C)[C@@H]1CCN(c2cnc3ccc(-c4ccc5oc(N)nc5c4)cc3n2)C1"
Result: > 6.00

Query: Quick one: pIC50 for "Nc1nc2cc(-c3ccc4ncc(N5CC(N6CCN(CC7CC7)CC6)C5)nc4n3)ccc2o1" ?
Result: < 5.00

Query: I have this compound here, "CC1(C)CN(C2CN(c3cnc4ccc(-c5ccc6oc(N)nc6c5)nc4n3)C2)CCN1" , and I need its recorded pIC50.
Result: < 5.00

Query: Item "Nc1nc2cc(-c3ccc4ncc(N5CC(N6CCN(C7CC7)CC6)C5)nc4c3)ccc2o1" has what recorded pIC50?
Result: > 5.00

Query: What measured pIC50 goes with "CCOC(=O)N1CCN(c2cnc3ccc(-c4ccc5oc(N)nc5c4)cc3n2)CC1" ?
Result: > 5.00

Query: Name the reported pIC50 value associated with the compound Nc1ccc2cc(-c3ccc4nccc(-c5ccncc5)c4c3)ccc2n1 [Compound 5]
Result: > 6.00

Query: Would you kindly share the measured pIC50 for "Nc1nc2cc(-c3ccc4ncc(-c5cccnc5)nc4c3)ccc2o1" ?
Result: > 5.00

Query: // query pIC50 value for entry Cn1cc(-c2ccnc3ccc(-c4ccc5oc(N)nc5c4)cc23)cn1 [Compound 26]
Result: > 6.00

Query: I'd like to know its pIC50. The compound in question is "CC(C)N1CCC(n2cnc3ccc(-c4ccc5oc(N)nc5c4)cc3c2=O)CC1"
Result: > 5.00

Query: Would you mind telling me what pIC50 value was observed for "Nc1nc2cc(-c3ccc4ncc(N5CC(N6CCOCC6)C5)nc4n3)ccc2o1" ?
Result: > 5.00
